Recorded values, source paper PMC12416549.

# Tgt: T1, TNFR1 (Homo sapiens, UniProt P19438)
# T1 chain: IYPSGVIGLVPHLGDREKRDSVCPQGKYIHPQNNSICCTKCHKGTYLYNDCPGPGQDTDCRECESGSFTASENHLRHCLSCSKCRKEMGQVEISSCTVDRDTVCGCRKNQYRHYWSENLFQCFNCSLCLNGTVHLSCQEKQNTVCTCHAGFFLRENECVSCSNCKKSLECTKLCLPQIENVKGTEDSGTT
# Protocol Summary: yeast display SC50
Property Label: apparent Kd (screen)

Exam item: What apparent Kd (screen) value was documented for this binder, E77S (designed binder) MTLQELLREEALRRAEAEAFRYALELLAEKFPEQKEYLLDLAEEIESQIRSLSGVDVEDVRKFLDKEWAWVKELLASHPAELAEVEAARAARLAELRAEVEAKVAA ?
Marked response: 1.05 nM

Exam item: // same read-out, input: F63M (designed binder) MTLQELLREEALRRAEAEAFRYALELLAEKFPEQKEYLLDLAEEIESQIRSLSGVDVEDVRKMLDKEWAWVKELLAEHPAELAEVEAARAARLAELRAEVEAKVAA
Marked response: 1.16 nM
